- Tested on: SN12C renal
- Protocol summary: NCI-60 one-dose screen, 48 h
- Particulars: 10 µM unless noted
This is part of a sample that, as a whole, favours compounds with a hit. Of some 83,000 tested, about 20% had one in any assay. The source made the active and inactive calls. Rule for the calls: active = growth percent below 10; inactive = the rest.
# valid calls are YES for active, NO for inactive; nothing else

These solved cases illustrate the format of a correct answer.
[
  {
    "Molecule": "CCC(C)CC(N)O (stereo not drawn)",
    "Study system": "SN12C renal",
    "Category": "NO"
  },
  {
    "Molecule": "O=C(Nc1cccc(Cn2c(=O)[nH]c3ccc(Oc4ncccn4)cc3c2=O)c1)c1ccc(Cl)cc1",
    "Study system": "SN12C renal",
    "Category": "NO"
  },
  {
    "Molecule": "Nc1ncn([C@@H]2O[C@H](CO)[C@@H](O)C2(F)F)c(=O)n1",
    "Study system": "SN12C renal",
    "Category": "NO"
  },
  {
    "Molecule": "CCN(CC)CCCC(C)Nc1c(C)cnc2cc(Cl)c(C)cc12 (stereo not drawn)",
    "Study system": "SN12C renal",
    "Category": "NO"
  },
  {
    "Molecule": "O=C(Nc1cccc2[nH]c(C(F)(F)F)nc12)c1ccc(F)cc1",
    "Study system": "SN12C renal",
    "Category": "NO"
  }
]

Enquiry: Assay outcome for CC(=O)N1CCN(CCNC(=O)n2cc(-c3ccncc3)c(-c3ccc(O)c(Cl)c3)n2)CC1 : what was it?
Return: NO

Enquiry: Assay outcome for COc1ccc(-c2cn3ccnc3c(-c3ccc4ncn(C5CCCCC5)c4c3)n2)cc1 : what was it?
Return: NO

Enquiry: What did this assay record as the result for CCCCCCNC(=O)Oc1ccc(/C(=C(/C)Cc2ccc(OC)cc2)c2ccc(OCCN(C)C)cc2)cc1 ?
Return: NO

Enquiry: Any idea what this test logged for CCCCCCCCCc1cc[n+](CC(=O)c2ccc([N+](=O)[O-])cc2)cc1 ?
Return: YES

Enquiry: Answer briefly: the call reported for CCCCCCCCCCCCCCCCNC(=O)Nc1ccc(C)c(NC(=O)NCCCCCCCCCCCCCCCC)c1 in this assay.
Return: NO

Enquiry: Which result was noted for this molecule in the test: COc1ccc(/C=C(/C(=O)N2CCCCC2)c2cc(OC)c(OC)c(OC)c2)cc1
Return: NO
